molecular target: Gal(b1-3)[Fuc(a1-4)]GlcNAc(b1-3)Gal(b1-3)[Fuc(a1-4)]GlcNAc; experiment: glycan array binding signal (z-score within array); higher = stronger binding; conditions: glycan notation: IUPAC condensed, linker removed
The entries come from a sample that favours the strongest signals as a whole.
measured-property: glycan array binding signal (z-score)
Keep the answer to the number alone.

Prompt line: Value lookup for glycan array binding signal (z-score); key = LSectin (Mus musculus), Q8BNX1 (protein) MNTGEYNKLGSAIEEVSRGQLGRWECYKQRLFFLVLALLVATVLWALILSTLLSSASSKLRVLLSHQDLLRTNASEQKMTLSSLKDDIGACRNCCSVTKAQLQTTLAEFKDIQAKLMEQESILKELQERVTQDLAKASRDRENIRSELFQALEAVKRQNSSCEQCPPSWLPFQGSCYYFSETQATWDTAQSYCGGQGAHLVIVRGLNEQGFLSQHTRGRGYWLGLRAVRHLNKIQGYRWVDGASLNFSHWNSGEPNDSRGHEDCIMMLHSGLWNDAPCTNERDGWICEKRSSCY
Response line: -0.172

Prompt line: Value lookup for glycan array binding signal (z-score); key = CrataBL (Crataeva tapia), C0HJA4 (protein) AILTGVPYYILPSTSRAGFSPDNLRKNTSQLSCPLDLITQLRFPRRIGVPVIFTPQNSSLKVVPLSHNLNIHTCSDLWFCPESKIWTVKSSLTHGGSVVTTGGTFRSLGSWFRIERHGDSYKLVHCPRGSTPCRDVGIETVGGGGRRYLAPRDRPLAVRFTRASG
Response line: -0.412

Prompt line: Value lookup for glycan array binding signal (z-score); key = Langerin K313I (Homo sapiens), Q9UJ71 (protein) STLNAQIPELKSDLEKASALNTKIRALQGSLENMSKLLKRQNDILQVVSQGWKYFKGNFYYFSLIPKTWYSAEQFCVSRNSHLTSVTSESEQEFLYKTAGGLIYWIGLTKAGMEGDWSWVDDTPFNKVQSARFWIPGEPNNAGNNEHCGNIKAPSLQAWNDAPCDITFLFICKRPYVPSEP
Response line: 0.067

Origin of the recorded values: the supplement of paper PMC8728848
